This section presents compounds with their documented IC50 values.
System: SKOV3
PROCEDURE_SUMMARY: Cellular proliferation assay (Alamar blue), SKOV3
Type: cell-based
TEST_CONDITIONS: Homo sapiens, SK-OV-3, SKOV3 cells, 72 hours with compound, 10% FCS, read-out: pIC50 SKOV3 (converted)
Protocol: […] functional properties of these compounds was tested in cellular proliferation assays on a panel of different cell lines in the presence of 10% FCS serum (37° C. and 5% (v/v) CO2). In a first step these cells were seeded and incubated for 24 hours in the absence of compound. In the second step the cells were incubated for 72 hours with the compounds to be tested for 72 hours. The viable cell number was finally assessed in a standard Alamar blue cell viability assay. […]

Here are 2 compounds together with their reported answers.
{"COMPOUND": "O=C1Nc2ncnc3c2/C1=C/Nc1ccc(c(Cl)c1)OCCCCCCC(=O)N1CCN3CC1", "MEASURED_ATTRIBUTE": "IC50", "RESULT": "> 10 µM"}
{"COMPOUND": "O=C1Nc2ncnc3c2C1=CNc1cc(ccc1Cl)OCCCCC(=O)N1CCN3CC1 (mixture of isomers)", "MEASURED_ATTRIBUTE": "IC50", "RESULT": "> 10 µM"}

Proceed to the following item.
Asked: For the compound O=C1Nc2ncnc3c2C1=CNc1ccc(cc1)S(=O)(=O)NCCCCC(=O)N1CCN3CC1 (mixture of isomers) , give its reported IC50.
Given back: > 10 µM

----------
MEASURED_TARGET: AuroraB (h) (Homo sapiens, UniProt Q96GD4)
Sequence (Q96GD4 whole entry): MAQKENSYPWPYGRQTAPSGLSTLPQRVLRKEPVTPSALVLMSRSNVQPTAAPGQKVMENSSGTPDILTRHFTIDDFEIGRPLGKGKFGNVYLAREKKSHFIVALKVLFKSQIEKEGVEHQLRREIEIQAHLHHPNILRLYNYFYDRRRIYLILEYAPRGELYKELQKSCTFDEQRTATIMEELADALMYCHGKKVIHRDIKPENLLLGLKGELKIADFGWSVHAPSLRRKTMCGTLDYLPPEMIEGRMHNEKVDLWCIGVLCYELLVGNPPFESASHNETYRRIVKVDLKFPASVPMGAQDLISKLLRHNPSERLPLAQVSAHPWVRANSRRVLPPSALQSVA
PROCEDURE_SUMMARY: Aurora-B human kinase assay (SPA)
Type: biochemical
TEST_CONDITIONS: read-out: AuroraB pIC50 (converted)
This section presents compounds with their documented IC50 values.
Report only the number, with the unit µM understood.

Here are 9 compounds together with their reported answers.
{"COMPOUND": "CN1CCNc2ncnc3c2/C(=C/Nc2ccc(Cl)c(c2)OCCCCCCC1=O)C(=O)N3", "READOUT_NUMBER": 7.59}
{"COMPOUND": "COc1ccc2cc1OCCCCCC(=O)N(C)CCCNc1ncnc3c1/C(=C/N2)C(=O)N3", "READOUT_NUMBER": 0.347}
{"COMPOUND": "COc1ccc2cc1OCC(=O)N(C)CCCCNc1ncnc3c1/C(=C/N2)C(=O)N3", "READOUT_NUMBER": 2.88}
{"COMPOUND": "CN1CCNc2ncnc3c2/C(=C/Nc2cccc(c2)OCCCCCCC1=O)C(=O)N3", "READOUT_NUMBER": 5.13}
{"COMPOUND": "CN1CCCCC(=O)N(C)CCNc2ncnc3c2/C(=C/Nc2cccc(c2)C1)C(=O)N3", "READOUT_NUMBER": 9.12}
{"COMPOUND": "COCCN1CCOc2cccc(c2)N/C=C2\\C(=O)Nc3ncnc(c32)NCCN(C)C(=O)C1", "READOUT_NUMBER": 7.41}
{"COMPOUND": "COCCN1CCOc2cccc(c2)N/C=C2\\C(=O)Nc3ncnc(c32)NCCCN(C)C(=O)C1", "READOUT_NUMBER": 6.46}
{"COMPOUND": "CN1CCCNc2ncnc3c2/C(=C/Nc2cc(cc(C(F)(F)F)c2)OCCCCC1=O)C(=O)N3", "READOUT_NUMBER": 0.309}
{"COMPOUND": "COc1ccc2cc1OCCCCCCC(=O)N(C)CCCNc1ncnc3c1/C(=C/N2)C(=O)N3", "READOUT_NUMBER": 1.91}

Proceed to the following item.
Asked: State measured IC50 of the compound `CN1CCNc2ncnc3c2/C(=C/Nc2cccc(c2)OCCN(C)[C@H](CO)C1=O)C(=O)N3` with AuroraB (h) (Homo sapiens, UniProt Q96GD4).
Given back: 5.25

----------
This section presents molecules with their documented IC50 values.
MEASURED_TARGET: AuroraB (h) (Homo sapiens, UniProt Q96GD4)
PROCEDURE_SUMMARY: Aurora-B human kinase assay (SPA)
Assay type: biochemical
TEST_CONDITIONS: read-out: AuroraB pIC50 (converted)

{"MOLECULE": "COCCN1CCCOc2cc(ccc2Cl)N/C=C2\\C(=O)Nc3ncnc(c32)N2CCN(CC2)C(=O)C1", "MEASURED_ATTRIBUTE": "IC50", "RESULT": "> 10 µM"}
{"MOLECULE": "COc1cc2cc(c1OC)CN(C)CCCCC(=O)N(C)CCCNc1ncnc3c1/C(=C/N2)C(=O)N3", "MEASURED_ATTRIBUTE": "IC50", "RESULT": "> 10 µM"}
{"MOLECULE": "CN1CCNc2ncnc3c2/C(=C/Nc2cccc(c2)OCCCCC1=O)C(=O)N3", "MEASURED_ATTRIBUTE": "IC50", "RESULT": "1.38 µM"}
{"MOLECULE": "COc1cc2cc(c1OC)CN(C)CCCC(=O)N(C)CCCNc1ncnc3c1/C(=C/N2)C(=O)N3", "MEASURED_ATTRIBUTE": "IC50", "RESULT": "> 10 µM"}
{"MOLECULE": "CN1CCNc2ncnc3c2/C(=C/Nc2cccc(c2)OCCCCCC1=O)C(=O)N3", "MEASURED_ATTRIBUTE": "IC50", "RESULT": "1.26 µM"}
{"MOLECULE": "CN1CCCCNc2ncnc3c2/C(=C/Nc2cccc(c2)OCC1=O)C(=O)N3", "MEASURED_ATTRIBUTE": "IC50", "RESULT": "2.34 µM"}
{"MOLECULE": "CN1CCCCC(=O)N(C)CCCNc2ncnc3c2/C(=C/Nc2ccc(N4CCOCC4)c(c2)C1)C(=O)N3", "MEASURED_ATTRIBUTE": "IC50", "RESULT": "> 10 µM"}
{"MOLECULE": "CN1CCNC(=O)CCCCCCOc2cc(ccc2Cl)N/C=C2\\C(=O)Nc3ncnc1c32", "MEASURED_ATTRIBUTE": "IC50", "RESULT": "> 10 µM"}

Asked: State measured IC50 of the molecule O=C1Nc2ncnc3c2C1=CNc1ccc(cc1)S(=O)(=O)NCCCCC(=O)N1CCN3CC1 (mixture of isomers) with AuroraB (h) (Homo sapiens, UniProt Q96GD4).
Given back: > 10 µM

Asked: State measured IC50 of the molecule `COCCN1CCCOc2cc(ccc2OC)N/C=C2\C(=O)Nc3ncnc(c32)NCCNC(=O)C1` with AuroraB (h) (Homo sapiens, UniProt Q96GD4).
Given back: 3.98 µM

----------
System: U87MG
PROCEDURE_SUMMARY: Cellular proliferation assay (Alamar blue), U87MG
Assay type: cell-based
TEST_CONDITIONS: Homo sapiens, U-87 MG, 72 h, U87MG cells, 72 hours with compound, 10% FCS, read-out: pIC50 U87MG (converted)
MEASURED_ATTRIBUTE: IC50

Here are 2 molecules together with their reported answers.
{"MOLECULE": "CN1CCCNc2ncnc3c2/C(=C/Nc2ccc(NC(=O)c4ccccc4)c(c2)OCCCC1=O)C(=O)N3 [Compound 108]", "MEASURED_TARGET": "U87MG", "MEASURED_ATTRIBUTE": "IC50", "RESULT": "> 10 µM"}
{"MOLECULE": "CN1CCCNc2ncnc3c2/C(=C/Nc2cc(cc(C(F)(F)F)c2)OCCCC1=O)C(=O)N3 [Compound 113]", "MEASURED_TARGET": "U87MG", "MEASURED_ATTRIBUTE": "IC50", "RESULT": "> 10 µM"}

Asked: For the molecule COc1ccc2cc1CN(C)CCCCCC(=O)NCCN(C)c1ncnc3c1/C(=C/N2)C(=O)N3 [Compound 48] , give its reported IC50.
Given back: > 10 µM

Asked: For the molecule CN1CCCCCCC(=O)NCCN(C)c2ncnc3c2/C(=C/Nc2cccc(c2)C1)C(=O)N3 [Compound 54] , give its reported IC50.
Given back: > 10 µM

Asked: For the molecule CN1CCNC(=O)CCCCCCOc2cc(ccc2Cl)N/C=C2\C(=O)Nc3ncnc1c32 [Compound 49] , give its reported IC50.
Given back: > 10 µM

Asked: For the molecule COc1ccc2cc1CN(C)CCCCC(=O)NCCN(C)c1ncnc3c1/C(=C/N2)C(=O)N3 [Compound 51] , give its reported IC50.
Given back: > 10 µM

Asked: For the molecule COc1ccc2cc1OCC(=O)NCCN1CCN(CC1)c1ncnc3c1/C(=C/N2)C(=O)N3 [Compound 207] , give its reported IC50.
Given back: > 10 µM

Asked: For the molecule O=C1Nc2ncnc3c2/C1=C/Nc1ccc(Cl)c(c1)OCCCCCC(=O)N1CCN3CC1 [Compound 25] , give its reported IC50.
Given back: > 10 µM

----------
MEASURED_TARGET: CDK1/CyclinB (h) (Homo sapiens)
Sequence (P06493 whole entry): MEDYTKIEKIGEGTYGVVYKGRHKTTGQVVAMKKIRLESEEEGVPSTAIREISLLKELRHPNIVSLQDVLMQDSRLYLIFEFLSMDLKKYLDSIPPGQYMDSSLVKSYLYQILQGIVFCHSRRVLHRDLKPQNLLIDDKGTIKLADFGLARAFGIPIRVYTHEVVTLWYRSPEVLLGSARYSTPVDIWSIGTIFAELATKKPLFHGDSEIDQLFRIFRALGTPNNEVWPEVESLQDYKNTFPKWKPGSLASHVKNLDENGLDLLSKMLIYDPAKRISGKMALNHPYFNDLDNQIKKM
Sequence (P14635 whole entry partner): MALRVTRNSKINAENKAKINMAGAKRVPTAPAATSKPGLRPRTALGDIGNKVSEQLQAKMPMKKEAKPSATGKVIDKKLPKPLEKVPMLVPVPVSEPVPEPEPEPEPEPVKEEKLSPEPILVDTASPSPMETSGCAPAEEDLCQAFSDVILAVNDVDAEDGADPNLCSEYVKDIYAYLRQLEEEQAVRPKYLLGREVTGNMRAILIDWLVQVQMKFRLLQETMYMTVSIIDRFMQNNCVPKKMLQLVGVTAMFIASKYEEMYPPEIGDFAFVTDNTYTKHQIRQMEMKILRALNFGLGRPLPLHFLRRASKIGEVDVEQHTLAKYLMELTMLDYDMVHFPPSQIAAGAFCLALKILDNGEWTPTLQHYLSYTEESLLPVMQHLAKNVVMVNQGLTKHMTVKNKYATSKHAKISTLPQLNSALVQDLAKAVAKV
PROCEDURE_SUMMARY: CDK1/CyclinB human kinase assay (FRET)
Assay type: biochemical
TEST_CONDITIONS: read-out: CDK1 pIC50 (converted)
MEASURED_ATTRIBUTE: IC50

Here are 6 compounds together with their reported answers.
{"COMPOUND": "N#Cc1ccc2cc1OCCCC(=O)N1CCN(CC1)c1ncnc3c1/C(=C/N2)C(=O)N3", "IC50": "> 10 µM"}
{"COMPOUND": "CN1CCCCCC(=O)N(C)CCCNc2ncnc3c2/C(=C/Nc2cccc(c2)C1)C(=O)N3", "IC50": "> 10 µM"}
{"COMPOUND": "CN1CC(=O)N(CCN2CCOCC2)CCC(=O)NCC#Cc2cccc3c2/C(=C/Nc2cccc(c2)S1(=O)=O)C(=O)N3", "IC50": "> 10 µM"}
{"COMPOUND": "COc1ccc2cc1OCCCCCCC(=O)NCCN(C)c1ncnc3c1/C(=C/N2)C(=O)N3", "IC50": "> 10 µM"}
{"COMPOUND": "CN1CCNc2ncnc3c2/C(=C/Nc2cccc(c2)OCCCCCC1=O)C(=O)N3", "IC50": "5.62 µM"}
{"COMPOUND": "CN1CCNC(=O)CCCOc2cccc(c2)N/C=C2\\C(=O)Nc3ncnc1c32", "IC50": "7.08 µM"}

Asked: For the compound `CN1CCCCCCC(=O)N(C)CCCNc2ncnc3c2/C(=C/Nc2cccc(c2)C1)C(=O)N3` , give its reported IC50.
Given back: > 10 µM

Asked: For the compound `CC(C)N1CCCCCC(=O)N2CCN(CC2)c2ncnc3c2/C(=C/Nc2ccc(F)c(c2)C1)C(=O)N3` , give its reported IC50.
Given back: > 10 µM

Asked: For the compound `CN1CCCC(=O)N(C)CCNc2ncnc3c2/C(=C/Nc2ccc(N4CCOCC4)c(c2)C1)C(=O)N3` , give its reported IC50.
Given back: > 10 µM

Asked: For the compound `COc1ccc2cc1OCCCCCCC(=O)N(C)CCCNc1ncnc3c1/C(=C/N2)C(=O)N3` , give its reported IC50.
Given back: > 10 µM

Asked: For the compound `COc1cc2cc(c1OC)OCCCC(=O)N(C)CCNc1ncnc3c1/C(=C/N2)C(=O)N3` , give its reported IC50.
Given back: > 10 µM

Asked: For the compound `CN1CCNc2ncnc3c2/C(=C/Nc2ccc(Cl)c(c2)OCCCC1=O)C(=O)N3` , give its reported IC50.
Given back: 0.229 µM
